- Target Under Test: T1, Bcat-Halo (UniProt P35222 1-781)
- T1 construct: also called beta-catenin HaloTag fusion; not shown: HaloTag
- T1 sequence (looked up): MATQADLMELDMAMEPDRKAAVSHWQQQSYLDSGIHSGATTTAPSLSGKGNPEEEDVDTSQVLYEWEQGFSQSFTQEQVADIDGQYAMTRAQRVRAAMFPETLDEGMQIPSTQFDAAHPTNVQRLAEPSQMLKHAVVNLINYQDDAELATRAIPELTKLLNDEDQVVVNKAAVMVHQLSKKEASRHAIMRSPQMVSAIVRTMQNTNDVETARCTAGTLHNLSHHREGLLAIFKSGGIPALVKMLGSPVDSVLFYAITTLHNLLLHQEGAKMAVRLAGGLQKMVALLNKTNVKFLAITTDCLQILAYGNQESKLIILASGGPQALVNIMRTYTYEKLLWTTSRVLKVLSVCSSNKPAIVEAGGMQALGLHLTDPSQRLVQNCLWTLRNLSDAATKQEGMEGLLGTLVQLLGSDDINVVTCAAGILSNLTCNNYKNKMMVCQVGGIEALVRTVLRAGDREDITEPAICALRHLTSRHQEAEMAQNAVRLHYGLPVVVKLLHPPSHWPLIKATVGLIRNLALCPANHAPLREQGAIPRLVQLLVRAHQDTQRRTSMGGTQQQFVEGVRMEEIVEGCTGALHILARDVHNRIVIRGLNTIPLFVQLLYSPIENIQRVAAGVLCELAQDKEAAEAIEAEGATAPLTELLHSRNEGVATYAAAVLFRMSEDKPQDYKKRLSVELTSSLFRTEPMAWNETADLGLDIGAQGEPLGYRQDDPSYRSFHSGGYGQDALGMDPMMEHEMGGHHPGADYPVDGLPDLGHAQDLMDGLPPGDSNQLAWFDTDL
- Experiment Description: NanoBRET Abs IC50 in HEK293 cells; Bcat-Halo, competitor TCF4-Luc
Starred links: 1 amine or outer side, 2 acyl side, 3 side chain; linkers in the order of their positions; H or OH if unused. Positions of bridges follow the written chain, without caps; N, C: chain ends. Non-standard residues stand in square brackets, D forms with d. Primed or numbered codes have the meaning given here. B5(16) = 2-amino-2-(pent-4-en-1-yl)hept-6-enoic acid = 2,2-bis(4-pentenyl)glycine (stitching residue), C=CCCCC(CCCC=C)(N[*:1])C(=O)[*:2]; Bta = N[C@@H](Cc1csc2ccccc12)C(=O)O; αAllylPro = C=CC[C@@]1(C(=O)O)CCCN1; S8 = C=CCCCCCC[C@](C)(N)C(=O)O
Readout Label: IC50 (µM)
Answer with a number only, understood to be in µM.

XDIXDEASFQXFXQ (not fully specified; Ac-PL3-Asp-Ile-B5-Asp-Glu-Ala-Ser-Phe-Gln-S8-Phe-BztA-Gln-NH2; N-terminal acetyl, C-terminal amide; PL3(1), B5(4), S8(11) stapled by olefin metathesis (1-4 and 4-11); BztA at 13, Stapled peptide) [I-662] ... 16.1

Here is the next item to consider.
**Q:** Give the measured IC50 for Ac-[αAllylPro]DI[B5(16)]DEQAFQ[S8]F[Bta]Q-NH2 (staple 1-4, 4-11, Stapled peptide) [I-654]
**A:** 15
